Entry source: patent US20150203517A1

Measured solubility at 1 h, listed per entry for reference.
Assay: Saline solubility at 1.00 mg/mL and 0.50 mg/mL (with pH by indicator paper)
Assay type: physicochemical
Settings: saline or isotonic, thermodynamic from solid, 1.00 mg/mL as hydroxamate 1, shaken 1 hour, centrifuged, soluble = no precipitate formed, read-out: Soluble at 1.00 mg/mL of MGCD290 (Y/N)

COCCOCCOCCOCCOCC(=O)NCC[C@H](NC(=O)COCCOCCOCCOCCOC)C(=O)NCCC(=O)ONC(=O)Cc1ccc(CCCCc2ccccc2)cc1 [Compound 149] = < 1000 µg/mL
COCCOCCOCCOCCOCCOCC(=O)N1CCC(CCCC(=O)ONC(=O)Cc2ccc(CCCCc3ccccc3)cc2)CC1 [Compound 122] = > 1000 µg/mL

## Task Would you kindly share the measured solubility at 1 h for COCCOCCOCCOCC(=O)N1CCC(CC(=O)ONC(=O)Cc2ccc(CCCCc3ccccc3)cc2)CC1 [Compound 116] ?
## Result < 1000 µg/mL

## Task Would you kindly share the measured solubility at 1 h for COCCC(=O)NC[C@H](NC(=O)CCOC)C(=O)NCCC(=O)ONC(=O)Cc1ccc(CCCCc2ccccc2)cc1 [Compound 144] ?
## Result < 1000 µg/mL

## Task Would you kindly share the measured solubility at 1 h for COCCOCCOCC(=O)NCCC[C@H](NC(=O)COCCOCCOC)C(=O)NCCC(=O)ONC(=O)Cc1ccc(CCCCc2ccccc2)cc1 [Compound 159] ?
## Result < 1000 µg/mL

## Task Would you kindly share the measured solubility at 1 h for COCCOCCOCC(=O)NCCCC[C@H](N)C(=O)NCCC(=O)ONC(=O)Cc1ccc(CCCCc2ccccc2)cc1.Cl [Compound 142] ?
## Result > 1000 µg/mL

## Task Would you kindly share the measured solubility at 1 h for COCCOCCOCCOCCOCC(=O)NCC1(C(=O)ONC(=O)Cc2ccc(CCCCc3ccccc3)cc2)CC1 [Compound 56] ?
## Result < 1000 µg/mL

## Task Would you kindly share the measured solubility at 1 h for COCCOCCOCCOCCOCCOCC(=O)NCCC(=O)ONC(=O)Cc1ccc(CCCCc2ccccc2)cc1 [Compound 62] ?
## Result < 1000 µg/mL
